Molecular target: T1, human Claudin18.2 (CLDN18.2) (human, UniProt P56856 1-261)
T1 construct: the cell line is named under assay; also called human Claudine18.2; hClaudin18.2
Experiment: FACS on GAXC031 cells, antibody at 50 µg/ml
Listing: MAX MFI of selected binders
Please reply with the value in numeric form only.

BINDER: IMAB362 (Zolbetuximab) (antibody, V domains shown) VH: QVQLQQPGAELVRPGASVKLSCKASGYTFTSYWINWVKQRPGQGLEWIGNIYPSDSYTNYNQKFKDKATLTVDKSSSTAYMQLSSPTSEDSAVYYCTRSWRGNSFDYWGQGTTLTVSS VL: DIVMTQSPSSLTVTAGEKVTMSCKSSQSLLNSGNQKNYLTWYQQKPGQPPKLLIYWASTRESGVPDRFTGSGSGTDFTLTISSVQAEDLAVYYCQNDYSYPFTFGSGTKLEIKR
MAX MFI: 742

Report MAX MFI for chAb24 (antibody, V domains shown) VH: EVKLVESGGGLVKPGGSLKLSCAGSGFTFSSYTMSWVRQTPEKRLEWVATITIGVNIYYLDSVKGRFTISRDNAKNTLYLQMNSLRSEDTALYYCTRLGQTQRNAMDYWGQGTSVTVSS VL: DIVMTQSPTSLSVSAGEKVTMTCKSSQSLFNSGNQKNYLAWYQEKPGQPPKLLIYGASTRESGVPDRFTGSGSGTDFTLTISSVQAEDLAVYYCQNVHFYPFTFGAGTKLEL please.
5860
